measured target: HLA-B*48:01
test method notes: IEDB peptide-MHC binding, purified MHC/direct/fluorescence; filed as Kd, often an IC50 or EC50 that approximates it; bounds were set here for any values at or beyond the usual limits of such assays
assay setup: source organism: Vibrio alginolyticus 12G01
pKd: −log10 of the molar value.

{"columns": ["sequence record", "pKd"],
 "data": [
  ["EQLGVPLHL", 6.31]
]}

====

measured target: HLA-C*14:02
test method notes: IEDB peptide-MHC binding, purified MHC/direct/fluorescence; filed as Kd, often an IC50 or EC50 that approximates it; bounds were set here for any values at or beyond the usual limits of such assays
assay setup: source organism: Mycobacterium tuberculosis variant bovis BCG str. Pasteur 1173P2
pKd: −log10 of the molar value.
measure: pKd

{"columns": ["sequence record", "measure", "observed"],
 "data": [
  ["YMLDMTFPV", "pKd", 7.12]
]}
